Please provide measured Cmax for the entries that follow.
- assay procedure: Cmax in NOD-SCID mouse at 15 mg/kg, ip administered as single dose and measured upto 48 hrs by HPLC/MS analysis
- Type: ADME, organism-based
- Set-up: time < 48 hrs, dose 15 mg/kg, route ip
- measurement context: in vivo
Provide only the numeric value, understood in ng/mL.

Incoming: Output measured Cmax for this item: O=Cc1c(O)ccc2ccccc12
Outgoing: 27400

Incoming: Look up and state reported Cmax for C=CC(=O)N1CCN(c2ncnc3c(F)c(-c4c(O)cccc4F)c(Cl)cc23)CC1
Outgoing: 5850

Incoming: Indicate the recorded Cmax value for this compound: O=C1Nc2cc(Cl)cc(Cl)c2C1=O
Outgoing: 337
